Test: log P by HPLC on reversed phase columns (Method L0; [a] acidic, [b] neutral range)
Quick reference for chromatographic logP among some compounds
API doc: respond with a numeric literal and nothing else, no unit.

Here's what some known entries look like.
>>> value_reported("Cc1nn2c(C(C)C)c(C(=O)N[C@H]3CCc4ccccc43)cnc2c1-c1cccc(OCC2CC2)c1")
5.28
>>> value_reported("Cc1nn2c(C3CC3)c(C(=O)N[C@H]3CCOc4ccccc43)cnc2c1-c1cc(Cl)c(F)c(Cl)c1")
4.95
>>> value_reported("Cc1nn2c(C(C)C)c(C(=O)N[C@H]3CCc4ccccc43)cnc2c1-c1cc(Cl)cc(Cl)c1F")
5.65

Now let's try a different one.
Can you look up the measured chromatographic logP of `CC(C)c1c(C(=O)N[C@H]2CCc3ccccc32)cnc2c(-c3cccc(N(C)C)c3)c(C(F)F)nn12` for me? 4.3

====

Molecular target: UniProt Q95V25
Assay: In vitro assay 1: C. elegans Slo-1a, action at a recombinant C. elegans CHO cell line (membrane potential measurement)
metric: EC50 (nM)
Give the number; nM is assumed, so skip it.

Here's what some known entries look like.
>>> value_reported("COc1cc(-c2c(C)nn3c(C4CC4)c(C(=O)N[C@H]4CCc5ccccc54)cnc23)cc(C(F)(F)F)c1")
63.1
>>> value_reported("Cc1nn2c(C(C)C)c(C(=O)N[C@H]3CCc4ccccc43)cnc2c1-c1ccnc(Cl)c1")
158

Can you look up the measured EC50 of `CC(C)c1c(C(=O)N[C@H]2CCCc3ccccc32)cnc2c(-c3cccc(C(F)(F)F)c3)c(Cl)nn12` for me? 79.4

Then `CC(C)c1c(C(=O)N[C@H]2CCc3ccccc32)cnc2c(-c3c(F)cccc3F)c(C3CC3)nn12` ? 251

Then `Cc1nn2c(C3CC3)c(C(=O)N[C@H]3CCc4ccccc43)cnc2c1-c1cccc(N2CC(C#N)C2)c1` ? 39.8

Then `COc1cc(-c2c(C)nn3c(C(C)C)c(C(=O)N[C@H]4CCOc5ccccc54)cnc23)cc(C(F)(F)F)c1` ? 25.1

====

Biological target: C. elegans Slo-1a (Caenorhabditis elegans)
Sequence (Q95V25 whole entry): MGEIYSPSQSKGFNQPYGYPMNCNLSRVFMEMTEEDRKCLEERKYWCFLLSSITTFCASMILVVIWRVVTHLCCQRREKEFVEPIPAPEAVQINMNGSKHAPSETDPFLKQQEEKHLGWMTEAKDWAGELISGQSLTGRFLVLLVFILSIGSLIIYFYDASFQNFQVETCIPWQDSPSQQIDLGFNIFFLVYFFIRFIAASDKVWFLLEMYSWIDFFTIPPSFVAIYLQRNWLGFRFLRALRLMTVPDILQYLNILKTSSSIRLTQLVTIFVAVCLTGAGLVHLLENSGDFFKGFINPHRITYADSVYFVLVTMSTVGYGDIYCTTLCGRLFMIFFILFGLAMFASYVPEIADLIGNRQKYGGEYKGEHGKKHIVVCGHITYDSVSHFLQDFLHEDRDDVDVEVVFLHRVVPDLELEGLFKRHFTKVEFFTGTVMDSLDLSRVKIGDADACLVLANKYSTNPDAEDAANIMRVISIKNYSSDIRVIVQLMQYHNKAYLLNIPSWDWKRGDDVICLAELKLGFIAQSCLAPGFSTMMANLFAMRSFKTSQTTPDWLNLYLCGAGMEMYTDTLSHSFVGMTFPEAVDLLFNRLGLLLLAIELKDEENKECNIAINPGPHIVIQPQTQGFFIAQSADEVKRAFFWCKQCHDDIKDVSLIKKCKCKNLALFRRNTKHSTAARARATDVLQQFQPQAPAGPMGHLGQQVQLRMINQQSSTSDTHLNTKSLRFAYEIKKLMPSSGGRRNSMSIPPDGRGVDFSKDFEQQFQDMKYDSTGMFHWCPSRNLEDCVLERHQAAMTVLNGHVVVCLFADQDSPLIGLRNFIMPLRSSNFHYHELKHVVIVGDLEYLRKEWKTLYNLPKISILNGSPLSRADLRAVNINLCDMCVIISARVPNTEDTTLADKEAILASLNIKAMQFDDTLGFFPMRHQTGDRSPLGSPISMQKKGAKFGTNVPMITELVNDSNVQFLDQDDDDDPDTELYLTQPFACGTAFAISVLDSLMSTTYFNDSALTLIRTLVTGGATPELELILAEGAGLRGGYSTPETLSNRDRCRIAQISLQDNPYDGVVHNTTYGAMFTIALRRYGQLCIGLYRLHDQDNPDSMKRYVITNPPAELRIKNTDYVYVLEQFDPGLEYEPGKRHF
Assay: In vitro assay 1: C. elegans Slo-1a, action at a recombinant C. elegans CHO cell line (membrane potential measurement)
metric: log10 of EC50 (log10 of the value in nM)
Base-10 log of EC50, unit nM.

Here's what some known entries look like.
>>> value_reported("COc1ccc(-c2c(C)nn3c(C(C)C)c(C(=O)N[C@H]4CCc5ccccc54)cnc23)cc1")
2.00
>>> value_reported("Cc1nn2c(CC(C)C)c(C(=O)N[C@H]3CCc4ccccc43)cnc2c1-c1c(F)cccc1Cl")
1.50
>>> value_reported("Cc1nn2c(C(C)C)c(C(=O)N[C@H]3CCOc4ccccc43)cnc2c1-c1cccc(Cl)c1F")
0.10

Can you look up the measured log10 of EC50 of `Cc1nn2c(C(C)C)c(C(=O)N[C@H]3CCc4ccccc43)cnc2c1-c1ccccc1` for me? 1.20

Then `Cc1nn2c(C(C)C)c(C(=O)N[C@H]3CCc4ccccc43)cnc2c1-c1cccc(C#N)c1` ? 1.70

Then `Cc1nn2c(C(C)C)c(C(=O)N[C@H]3CCOc4ccccc43)cnc2c1-c1cc(Cl)cc(Cl)c1F` ? -0.30

Then `Cc1nn2c(C(C)C)c(C(=O)N[C@H]3CCc4ccccc43)cnc2c1-c1cc(F)ccc1F` ? 1.00

Then `Cc1nn2c(C3CC3)c(C(=O)N[C@H]3CCOc4ccccc43)cnc2c1-c1ccc(Cl)nc1` ? 1.90
